Target: Pyruvate kinase PKM (Homo sapiens) (UniProt P14618)
Sequence (P14618 whole entry, looked up, canonical isoform): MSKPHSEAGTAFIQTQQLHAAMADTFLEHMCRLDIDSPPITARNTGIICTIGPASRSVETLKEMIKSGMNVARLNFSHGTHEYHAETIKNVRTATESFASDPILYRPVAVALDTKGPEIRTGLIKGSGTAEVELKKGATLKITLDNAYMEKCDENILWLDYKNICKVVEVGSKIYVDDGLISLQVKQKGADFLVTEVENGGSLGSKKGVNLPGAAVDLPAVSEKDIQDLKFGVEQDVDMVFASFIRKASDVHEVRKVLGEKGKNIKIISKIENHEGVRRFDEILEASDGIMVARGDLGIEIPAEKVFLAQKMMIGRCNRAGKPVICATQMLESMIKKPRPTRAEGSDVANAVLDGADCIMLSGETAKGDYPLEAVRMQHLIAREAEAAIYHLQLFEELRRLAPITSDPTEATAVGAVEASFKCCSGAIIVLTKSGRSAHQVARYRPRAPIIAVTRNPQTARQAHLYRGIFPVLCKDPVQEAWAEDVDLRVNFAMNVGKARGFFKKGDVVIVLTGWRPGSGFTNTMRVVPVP
Experiment: Secondary Concentration-Response Assay for Activators of Human Muscle isoform 1 Pyruvate Kinase: for Probe SAR
Conditions: purified hPK-M1, ATP production, Kinase-Glo luminescence
Assay Metric: max response (%)

* Cc1ccc(NS(=O)(=O)c2cc3c(cc2Cl)NC(=O)C3)cc1C | 2.96
* Cc1ccc(Cl)cc1NS(=O)(=O)c1cc2c(cc1Cl)CCC(=O)N2 | 1.5
* Nc1cccc(S(=O)(=O)N2CCCN(S(=O)(=O)c3ccc4c(c3)OCCO4)CC2)c1 | -0.314

* * *

# maps each entry to its max response
Biological target: Pyruvate kinase PKM (Homo sapiens) (UniProt P14618)
Experiment: Secondary Concentration-Response Assay for Activators of Human Muscle isoform 1 Pyruvate Kinase: for Probe SAR
Conditions: purified hPK-M1, ATP production, Kinase-Glo luminescence
Assay Metric: max response (%)

- Cc1cc2c(s1)c1cnn(Cc3cc(F)ccc3F)c(=O)c1n2C: 4.73
- O=S(=O)(c1ccc2c(c1)OCCO2)N1CCN(S(=O)(=O)c2c(F)cccc2F)CC1: -8.27
- N#Cc1cccc(NS(=O)(=O)c2ccc3c(c2)CCC(=O)N3)c1: -2.21
- Cc1ccc(N(C)S(=O)(=O)c2ccc3c(c2)CCC(=O)N3)cc1C: 0.78
- Cc1cc2c(s1)c1cnn(Cc3ccccc3F)c(=O)c1n2C: -9.51
- Cc1ccc(NS(=O)(=O)c2cc3c(cc2N(C)C)CCC(=O)N3)cc1C: -0.287
- Cc1ccc(NS(=O)(=O)c2ccc3c(c2)C(Cl)(Cl)C(=O)N3)cc1C: 0.115
- Cc1cc(NS(=O)(=O)c2ccc3c(c2)CCC(=O)N3)ccc1Cl: -0.197
- COc1cccc(Cn2ncc3c4sc(SC)cc4n(C)c3c2=O)c1: 13.2
- O=C1CCc2cc([S+](=O)([O-])Nc3ccc(N[S+](=O)([O-])c4ccc5c(c4)CCC(=O)N5)cc3)ccc2N1: -0.299
- Cc1ccc(N[S+](=O)([O-])c2cc3c(cc2CCc2ccccc2)NC(=O)CO3)cc1C: -3.27
- Cc1ccc(NS(=O)(=O)c2ccc3c(c2)CCC(=O)N3)cc1F: 0.0639
- CC(=O)N1c2ccc(S(=O)(=O)Nc3ccc(C)c(C)c3)cc2CC1C (stereo unspecified): 13.1
- CSc1cc2c(s1)c1cnn(Cc3cccc(N)c3)c(=O)c1n2C: 7.82
- Cc1ccc(NS(=O)(=O)c2ccc3c(c2)CCC(=O)N3)cc1C: -6.39
- CNc1cccc(S(=O)(=O)N2CCCN(S(=O)(=O)c3ccc4c(c3)OCCO4)CC2)c1: 3.54
- O=C1CCc2cc(S(=O)(=O)Nc3ccc(Cl)c(Cl)c3)ccc2N1: 4.63
- Cc1cc2c(s1)c1cnn(Cc3cc(F)c(F)cc3F)c(=O)c1n2C: -8.12
- Cc1cc2c(s1)c1cnn(Cc3c(Cl)ccc(C)c3F)c(=O)c1n2C: 4.91
- O=C1CCc2cc([S+](=O)([O-])NC3CCOCC3)ccc2N1: -5.17
- CCNc1cccc(S(=O)(=O)N2CCCN(S(=O)(=O)c3ccc4c(c3)OCCO4)CC2)c1: 8.55
